# Tested on: 2019 novel coronavirus (SARS-CoV-2)
# Assay details: Inhibition of 2019 novel coronavirus (SARS-CoV-2) replication in Vero E6 cells, virus copy number by qRT-PCR
# Assay type: cell-based
# Condition details: Severe acute respiratory syndrome coronavirus 2, Vero C1008; Vero E6 cells, MOI 0.01, 24 h p.i., qRT-PCR of supernatant
pEC50: −log10 of the molar value.
Consider the following compounds and their measured pEC50 readings.
Observed property: pEC50

[[record]]
structure_as_smiles = "COc1cc2c3cc1Oc1c(OC)c(OC)cc4c1[C@@H](Cc1ccc(C)c(c1)Oc1ccc(cc1)C[C@@H]3N(C)CC2)N(C)CC4"
observed_property = "pEC50"
relation_operator = "="
value_measured = 5.61

[[record]]
structure_as_smiles = "COc1cc2c3cc1Oc1c(OC)c(OC)cc4c1[C@@H](Cc1ccc(C(C)=O)c(c1)Oc1ccc(cc1)C[C@@H]3N(C)CC2)N(C)CC4"
observed_property = "pEC50"
relation_operator = ">"
value_measured = 5.70

[[record]]
structure_as_smiles = "COc1cc2c3cc1Oc1c(OC)c(OC)cc4c1[C@@H](Cc1ccc(C(=O)C5CC5)c(c1)Oc1ccc(cc1)C[C@@H]3N(C)CC2)N(C)CC4"
observed_property = "pEC50"
relation_operator = ">"
value_measured = 5.70

[[record]]
structure_as_smiles = "COc1cc2c3cc1Oc1c(OC)c(OC)cc4c1[C@@H](Cc1ccc(C(=O)OCCOCCO)c(c1)Oc1ccc(cc1)C[C@@H]3N(C)CC2)N(C)CC4"
observed_property = "pEC50"
relation_operator = ">"
value_measured = 5.70

[[record]]
structure_as_smiles = "COc1cc2c3cc1Oc1c(OC)c(OC)cc4c1[C@@H](Cc1ccc(C#N)c(c1)Oc1ccc(cc1)C[C@@H]3N(C)CC2)N(C)CC4"
observed_property = "pEC50"
relation_operator = "="
value_measured = 6.15

[[record]]
structure_as_smiles = "COc1cc2c3cc1Oc1c(OC)c(OC)cc4c1[C@@H](Cc1ccc(C(=O)Nc5ccccc5)c(c1)Oc1ccc(cc1)C[C@@H]3N(C)CC2)N(C)CC4"
observed_property = "pEC50"
relation_operator = ">"
value_measured = 5.70

[[record]]
structure_as_smiles = "COc1cc2c3cc1Oc1c(OC)c(OC)cc4c1[C@@H](Cc1ccc(C5CC5)c(c1)Oc1ccc(cc1)C[C@@H]3N(C)CC2)N(C)CC4"
observed_property = "pEC50"
relation_operator = "="
value_measured = 5.65

[[record]]
structure_as_smiles = "COc1cc2c3cc1Oc1c(OC)c(OC)cc4c1[C@@H](Cc1ccc(C=O)c(c1)Oc1ccc(cc1)C[C@@H]3N(C)CC2)N(C)CC4"
observed_property = "pEC50"
relation_operator = "="
value_measured = 5.92

[[record]]
structure_as_smiles = "COC(=O)c1ccc2cc1Oc1ccc(cc1)C[C@H]1c3cc(c(OC)cc3CCN1C)Oc1c(OC)c(OC)cc3c1[C@@H](C2)N(C)CC3"
observed_property = "pEC50"
relation_operator = "="
value_measured = 6.44

[[record]]
structure_as_smiles = "COc1cc2c3cc1Oc1c(OC)c(OC)cc4c1[C@@H](Cc1ccc(C(=O)N5CCCCC5)c(c1)Oc1ccc(cc1)C[C@@H]3N(C)CC2)N(C)CC4"
observed_property = "pEC50"
relation_operator = ">"
value_measured = 5.70

[[record]]
structure_as_smiles = "COc1cc2c3cc1Oc1c(OC)c(OC)cc4c1[C@@H](Cc1ccc(C(=O)NCCOCCO)c(c1)Oc1ccc(cc1)C[C@@H]3N(C)CC2)N(C)CC4"
observed_property = "pEC50"
relation_operator = ">"
value_measured = 5.70

[[record]]
structure_as_smiles = "COc1cc2c3cc1Oc1c(OC)c(OC)cc4c1[C@@H](Cc1ccc(OC(=O)CCCC[C@H]5CCSS5)c(c1)Oc1ccc(cc1)C[C@@H]3N(C)CC2)N(C)CC4"
observed_property = "pEC50"
relation_operator = "="
value_measured = 5.82

[[record]]
structure_as_smiles = "COc1cc2c3cc1Oc1c(OC)c(OC)cc4c1[C@@H](Cc1ccc(C(=O)Nc5ccc(C(F)(F)F)cc5)c(c1)Oc1ccc(cc1)C[C@@H]3N(C)CC2)N(C)CC4"
observed_property = "pEC50"
relation_operator = ">"
value_measured = 5.70

[[record]]
structure_as_smiles = "C=C(C)c1ccc2cc1Oc1ccc(cc1)C[C@H]1c3cc(c(OC)cc3CCN1C)Oc1c(OC)c(OC)cc3c1[C@@H](C2)N(C)CC3"
observed_property = "pEC50"
relation_operator = "="
value_measured = 6.02

[[record]]
structure_as_smiles = "COc1ccc(NC(=O)c2ccc3cc2Oc2ccc(cc2)C[C@H]2c4cc(c(OC)cc4CCN2C)Oc2c(OC)c(OC)cc4c2[C@@H](C3)N(C)CC4)cc1"
observed_property = "pEC50"
relation_operator = ">"
value_measured = 5.70

[[record]]
structure_as_smiles = "COc1cc2c3cc1Oc1c(OC)c(OC)cc4c1[C@@H](Cc1cc(cc([N+](=O)[O-])c1)Oc1ccc(cc1)C[C@@H]3N(C)CC2)N(C)CC4"
observed_property = "pEC50"
relation_operator = "="
value_measured = 6.20

[[record]]
structure_as_smiles = "COc1cc2c3cc1Oc1c(OC)c(OC)cc4c1[C@@H](Cc1ccc(C(N)=O)c(c1)Oc1ccc(cc1)C[C@@H]3N(C)CC2)N(C)CC4"
observed_property = "pEC50"
relation_operator = "="
value_measured = 6.26

[[record]]
structure_as_smiles = "COc1cc2c3cc1Oc1c(OC)c(OC)cc4c1[C@@H](Cc1ccc(C(=O)NC(C)C)c(c1)Oc1ccc(cc1)C[C@@H]3N(C)CC2)N(C)CC4"
observed_property = "pEC50"
relation_operator = ">"
value_measured = 5.70

[[record]]
structure_as_smiles = "COc1cc2c3cc1Oc1c(OC)c(OC)cc4c1[C@@H](Cc1ccc(C(=O)NC5CCC5)c(c1)Oc1ccc(cc1)C[C@@H]3N(C)CC2)N(C)CC4"
observed_property = "pEC50"
relation_operator = ">"
value_measured = 5.70

[[record]]
structure_as_smiles = "COc1cc2c3cc1Oc1c(OC)c(OC)cc4c1[C@@H](Cc1ccc(C(=O)Nc5cccnc5)c(c1)Oc1ccc(cc1)C[C@@H]3N(C)CC2)N(C)CC4"
observed_property = "pEC50"
relation_operator = ">"
value_measured = 5.70

[[record]]
structure_as_smiles = "COc1cc2c3cc1Oc1c(OC)c(OC)cc4c1[C@@H](Cc1ccc(CO)c(c1)Oc1ccc(cc1)C[C@@H]3N(C)CC2)N(C)CC4"
observed_property = "pEC50"
relation_operator = "="
value_measured = 5.95

[[record]]
structure_as_smiles = "COc1cc2c3cc1Oc1c(OC)c(OC)cc4c1[C@@H](Cc1cc(c5oc(=O)[nH]c5c1)Oc1ccc(cc1)C[C@@H]3N(C)CC2)N(C)CC4"
observed_property = "pEC50"
relation_operator = "="
value_measured = 6.05

[[record]]
structure_as_smiles = "CCCCCNC(=O)c1ccc2cc1Oc1ccc(cc1)C[C@H]1c3cc(c(OC)cc3CCN1C)Oc1c(OC)c(OC)cc3c1[C@@H](C2)N(C)CC3"
observed_property = "pEC50"
relation_operator = "="
value_measured = 5.68

